Reported Median (FL1-H) values for the following binders.
# test_target: T1, human CD40 (human, UniProt P25942 21-277)
# T1 construct: whole, on cells; also called huCD40; CD40 expressed on JY cells
# T1 sequence (P25942 21-277): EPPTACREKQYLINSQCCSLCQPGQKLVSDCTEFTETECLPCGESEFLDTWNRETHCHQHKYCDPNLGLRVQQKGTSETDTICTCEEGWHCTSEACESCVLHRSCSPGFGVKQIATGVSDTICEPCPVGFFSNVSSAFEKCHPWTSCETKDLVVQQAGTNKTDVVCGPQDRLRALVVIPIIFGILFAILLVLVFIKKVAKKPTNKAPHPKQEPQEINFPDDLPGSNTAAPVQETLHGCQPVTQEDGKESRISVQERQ
# test_summary: FACS on JY cells expressing CD40; 100 µl PER.C6 transient supernatant harvested after 48 h (antibody concentration not equalised), FITC anti-human IgG 1/100; in the same figure Mock Control Mean 11.25 / Median 8.74, FACS control (secondary only) Mean 10.18 / Median 8.74
Unit FL1-H implied. Number only.

Answered examples (2):
// recorded Median (FL1-H) for Q5E variant of deimmunised 5D12 (antibody, human IgG4, V domains shown, VH on a human IgG4 backbone) VH: QVKLEESGPGLVKPSETLSITCTVSGFSISRYSVYWIRQPPGKGPEWMGMMWGGGSTDYSTSLKSRLTISKDTSKSQVSLKMNSLRTDDTAMYYCVRTDGDYWGQGTTVTVSS VL: ELQLTQSPLSLPVTLGQPASISCRSSQSLANSNGNTYLHWYLQRPGQSPRLLIYKVSNRFSGVPDRFSGSGSGTDFTLKISRVEAEDVGVYYCSQSTHVPWTFGGGTKLEIKR : 37.5

// recorded Median (FL1-H) for E16Q variant of deimmunised 5D12 (antibody, human IgG4, V domains shown, VH on a human IgG4 backbone) VH: QVKLQESGPGLVKPSQTLSITCTVSGFSISRYSVYWIRQPPGKGPEWMGMMWGGGSTDYSTSLKSRLTISKDTSKSQVSLKMNSLRTDDTAMYYCVRTDGDYWGQGTTVTVSS VL: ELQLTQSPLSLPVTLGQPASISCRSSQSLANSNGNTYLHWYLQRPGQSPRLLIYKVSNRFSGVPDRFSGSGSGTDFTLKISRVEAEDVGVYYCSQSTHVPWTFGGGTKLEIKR : 38.2

Now for another entry.
// recorded Median (FL1-H) for PG102 (I29L variant) (antibody, human IgG4, kappa, V domains shown, Human IgG4/kappa; also called 29L-37I) VH: QVKLQESGPGLVKPSETLSITCTVSGFSLSRYSVYWIRQPPGKGPEWMGMMWGGGSTDYSTSLKSRLTISKDTSKSQVSLKMNSLRTDDTAMYYCVRTDGDYWGQGTTVTVSS VL: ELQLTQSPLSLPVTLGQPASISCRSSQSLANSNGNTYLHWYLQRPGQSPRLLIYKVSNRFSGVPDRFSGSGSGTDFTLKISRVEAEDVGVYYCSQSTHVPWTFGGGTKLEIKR : 91.8
